biological target: Akt1 (Homo sapiens, UniProt P31749, S473D); construct: The version of Akt used in these studies lacks the pleckstrin homology (PH) domain; test: Akt1 kinase assay, fluorescence polarization (IMAP); format: biochemical; conditions: Table 4; read-out: Avg Akt kinase, μM (50% inhibition)
Sequence (P31749 118-480 S473D limits assumed, species assumed): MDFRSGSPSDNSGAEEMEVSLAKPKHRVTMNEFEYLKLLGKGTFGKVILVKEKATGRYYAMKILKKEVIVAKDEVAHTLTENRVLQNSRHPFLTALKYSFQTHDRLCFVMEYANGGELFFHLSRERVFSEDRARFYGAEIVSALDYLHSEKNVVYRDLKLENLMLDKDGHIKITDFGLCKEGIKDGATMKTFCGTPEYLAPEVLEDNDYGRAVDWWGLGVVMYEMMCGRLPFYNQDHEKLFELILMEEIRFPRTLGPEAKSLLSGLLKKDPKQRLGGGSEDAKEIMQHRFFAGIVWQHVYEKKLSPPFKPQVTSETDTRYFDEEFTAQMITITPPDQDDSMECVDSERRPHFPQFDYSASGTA
measured-metric: IC50 (µM)

{"columns": ["compound", "target-desc", "measured-metric", "unit-of-measurement", "number"],
 "data": [
  ["CCc1c[nH]c2ncnc(N3CCC(N)(COc4cccc(C)c4)C3)c12 (stereo not drawn) [Example 65]", "Akt1 (Homo sapiens, UniProt P31749, S473D)", "IC50", "µM", 0.0948],
  ["Cc1c[nH]c2ncnc(N3CC[C@@](N)(COc4cccc(C(F)(F)F)c4)C3)c12 [Example 62]", "Akt1 (Homo sapiens, UniProt P31749, S473D)", "IC50", "µM", 2.69],
  ["Cc1c[nH]c2ncnc(N3CCC(N)(COc4cccc(C(F)(F)F)c4)C3)c12 (stereo not drawn) [Example 60]", "Akt1 (Homo sapiens, UniProt P31749, S473D)", "IC50", "µM", 0.0504]
]}

(I) N#Cc1c[nH]c2ncnc(N3CCC(N)(COc4cccc(C(F)(F)F)c4)C3)c12 (stereo not drawn) [Example 63]
(II) CCc1c[nH]c2ncnc(N3CCC(N)(COc4cccc(C(F)(F)F)c4)C3)c12 (stereo not drawn) [Example 64]
(III) Cc1c[nH]c2ncnc(N3CC[C@](N)(COc4cccc(C(F)(F)F)c4)C3)c12 [Example 61]
Incoming: Hey, can you sort those compounds up there by IC50, smallest first? State the ranking by listing the labels in the requested order.
Outgoing: II, III, I
